Target: OsWOX13 (Oryza sativa, UniProt Q5QMM3 1-267)
Sequence: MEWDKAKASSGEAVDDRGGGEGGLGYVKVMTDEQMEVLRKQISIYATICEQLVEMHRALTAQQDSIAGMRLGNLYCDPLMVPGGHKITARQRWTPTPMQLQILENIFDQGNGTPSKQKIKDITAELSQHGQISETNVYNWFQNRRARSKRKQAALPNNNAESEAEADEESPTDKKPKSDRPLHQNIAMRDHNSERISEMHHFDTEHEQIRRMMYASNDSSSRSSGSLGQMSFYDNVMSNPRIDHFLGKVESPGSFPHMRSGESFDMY
Assay: protein-binding microarray (RPBM); PBS, 2% BSA, 51.3 ng/ul salmon testes DNA, 50 uM zinc acetate, 200 nM TF, 25 C, 1 h; high values mean tight binding
Conditions: protein: recombinant; tags: N-terminal polyhistidine and DsRed monomer fusion (pET32a); label: CyDye5-dUTP incorporated in the synthesized complementary strand; 3' TTTTT single-stranded linker to array surface; dsDNA, one strand shown
Whole data set: some 35,000 sequences, median “fluorescence intensity (a.u.)” near 10,000, cut for the highest 2% near 52,000. The sample as a whole holds a higher share of the highest values than the screen did.
Recorded binding signal values for a group of sequences are listed next.

| biopolymer_sequence | binding signal |
| --- | --- |
| TTGATTGATGGGAGTCTAACAAAGTGACAAAACTTAGCAACGGAGTCACCTAGTGCAG | 53900 fluorescence intensity (a.u.) |

binding signal lookup needed for "AGTTAATTAATTAGTCCATCCAAGGAAGGAGTATATGATTCGGAGTCACCTAGTGCAG" , thanks.
55800 fluorescence intensity (a.u.)

binding signal lookup needed for "TATTAATTGGATAAAGTCATCTATATTAATGTGGATAATACGGAGTCACCTAGTGCAG" , thanks.
17600 fluorescence intensity (a.u.)

binding signal lookup needed for "ACTAATTTCATAACTCTCCTGGAAACCGTGAGATGAATCTCGGAGTCACCTAGTGCAG" , thanks.
6360 fluorescence intensity (a.u.)

binding signal lookup needed for "CCTAATTAAGTGGATTTTAGTTTTATATATTATTTAACTTCGGAGTCACCTAGTGCAG" , thanks.
25700 fluorescence intensity (a.u.)

binding signal lookup needed for "GGATTATCAATCAAGCAAGCAAACAAACACTAAGGAAACCCGGAGTCACCTAGTGCAG" , thanks.
15000 fluorescence intensity (a.u.)

binding signal lookup needed for "ACGGAATGAACACTAATTTACTTAATACATAGAACCACGGCGGAGTCACCTAGTGCAG" , thanks.
19400 fluorescence intensity (a.u.)

binding signal lookup needed for "CATTTGCTAATGACGGATTAATTAGGGTTTATAAATTCGTCGGAGTCACCTAGTGCAG" , thanks.
24400 fluorescence intensity (a.u.)

binding signal lookup needed for "TTCAATTGATATAGACACAGATCTATGTGATTCACTGACACGGAGTCACCTAGTGCAG" , thanks.
21700 fluorescence intensity (a.u.)

binding signal lookup needed for "GCAGTCCATTAACACGTGATTAATTAAGTATTAGTTAATTCGGAGTCACCTAGTGCAG" , thanks.
21800 fluorescence intensity (a.u.)

binding signal lookup needed for "AGTTAGTGATTATATGATTAATCTATGGTCCAAATTATCTCGGAGTCACCTAGTGCAG" , thanks.
23900 fluorescence intensity (a.u.)

binding signal lookup needed for "AATTCTAATATATTTGATTGTTTCAAAATAAAGTCTTTGCCGGAGTCACCTAGTGCAG" , thanks.
14700 fluorescence intensity (a.u.)

binding signal lookup needed for "AAAACAGAAAATAGCCAGTCAACCAAACAGTTGTCTTGACCGGAGTCACCTAGTGCAG" , thanks.
6230 fluorescence intensity (a.u.)

binding signal lookup needed for "TTAGATAGATTAATATGTGATAGATCTTCACAAACAGACACGGAGTCACCTAGTGCAG" , thanks.
54900 fluorescence intensity (a.u.)

Source listed as paper PMC7819943.
